Recorded measurements of activation, one per entry
Target: Cellular tumor antigen p53 (Homo sapiens)
Experiment: Primary qHTS for small molecule compounds that upregulate eGFP-tagged delta133p53alpha (in N-terminal) cells. (AID 2060322);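 further: cells pre-induced with doxycycline then dosed without doxycycline; series mostly up to about 56 µM; 0% = DMSO vehicle and 100% = reference activator; nearly all actives have a fitted effect of over 75% in size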
Conditions: NCI-H358 eGFP-delta133p53alpha fluorescence, 24 h; stronger effect = higher value
Records with an inconclusive call do not appear. The source made the active and inactive calls. The call rests on the fitted dose curve; in most records, active means well fitted activation curve with a large enough effect; inconclusive means small, poorly fitted or top-dose-only effect; inactive means no such curve, though single readings can be large or run the other way.

Worked examples, 3 molecules total:
In [3]: df
Out[3]:
                                   molecule  quantity_name            measured
0                 CCCN(CCC)CCc1ccc(O)c(O)c1     activation  -0.248% (inactive)
1  CC(C)(C)c1o[nH]c(=O)c1CC(N)C(=O)O (configuration not stated)     activation   -13.9% (inactive)
2                  C[C@H]1CNCCc2ccc(Cl)cc21     activation   -8.37% (inactive)

Record Nc1ccc(Cl)cc1 . Reported activation: -6.21% (inactive)

Record N#C/C(=C/c1ccc(O)c(O)c1)C(N)=S . Reported activation: -33.2% (inactive)

Record COc1c(C(C)C)cc2c(c1O)[C@@]1(C(=O)O)CCCC(C)(C)C1CC2 (some centres not stated) . Reported activation: -13% (inactive)
